System: PARP (Mus musculus)
Construct: PARP Activity in Cultured Macrophages, Using a Whole-Cell Based Assay; host or cells: murine RAW macrophages
Sequence (P11103 whole entry): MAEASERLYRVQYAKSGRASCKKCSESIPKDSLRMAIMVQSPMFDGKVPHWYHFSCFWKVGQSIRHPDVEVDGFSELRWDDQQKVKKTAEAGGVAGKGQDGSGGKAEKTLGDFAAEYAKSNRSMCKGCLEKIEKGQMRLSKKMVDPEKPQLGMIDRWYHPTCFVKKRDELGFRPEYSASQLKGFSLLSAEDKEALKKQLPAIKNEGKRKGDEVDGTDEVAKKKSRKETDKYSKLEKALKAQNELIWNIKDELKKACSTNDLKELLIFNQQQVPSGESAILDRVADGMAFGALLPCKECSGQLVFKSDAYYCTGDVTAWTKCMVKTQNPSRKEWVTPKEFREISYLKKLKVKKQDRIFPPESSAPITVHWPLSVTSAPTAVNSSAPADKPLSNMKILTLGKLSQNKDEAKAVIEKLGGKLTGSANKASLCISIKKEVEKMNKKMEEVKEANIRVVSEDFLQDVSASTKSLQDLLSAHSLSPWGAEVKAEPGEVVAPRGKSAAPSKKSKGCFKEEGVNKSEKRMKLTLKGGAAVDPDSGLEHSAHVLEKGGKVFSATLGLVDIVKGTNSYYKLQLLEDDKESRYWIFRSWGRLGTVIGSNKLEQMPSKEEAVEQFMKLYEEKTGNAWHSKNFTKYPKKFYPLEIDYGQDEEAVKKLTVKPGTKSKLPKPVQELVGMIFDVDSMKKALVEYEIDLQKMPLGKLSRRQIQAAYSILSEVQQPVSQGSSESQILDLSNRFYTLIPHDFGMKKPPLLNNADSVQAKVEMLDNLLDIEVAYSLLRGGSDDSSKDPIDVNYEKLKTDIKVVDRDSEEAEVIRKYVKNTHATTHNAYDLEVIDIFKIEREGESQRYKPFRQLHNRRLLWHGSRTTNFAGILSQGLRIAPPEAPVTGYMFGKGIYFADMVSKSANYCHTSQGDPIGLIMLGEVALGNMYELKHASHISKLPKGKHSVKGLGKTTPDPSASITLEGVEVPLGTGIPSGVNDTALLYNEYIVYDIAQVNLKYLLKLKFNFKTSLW
Assay summary: PARP activity in cultured macrophages, whole-cell based assay (3H-NAD+ incorporation after hydrogen peroxide)
Reported conditions: murine RAW macrophages; compound 1 hour prior to hydrogen peroxide (0.5 mM) for 25 minutes; PARP activity by 3H-NAD+
pEC50: −log10 of the molar value. Counter-ions that a name gives are not always drawn.
Value type: pEC50

N#CCCN1CCN(Cc2ccc3c(c2)Cc2c-3[nH]c(=O)c3ccccc23)CC1 [IIb-66] : 7.35
CN1CCCN(Cc2ccc3c(c2)Cc2c-3[nH]c(=O)c3ccccc23)CC1 [IIIb-13] : 7.60
O=c1[nH]c2c(c3ccccc13)Cc1c(CN3CC=CCC3)cccc1-2 [IIIa-12] : 8.15

I = CC(C)(O)CN1CCN(Cc2ccc3c(c2)Cc2c-3[nH]c(=O)c3ccccc23)CC1 [IIIb-18, dihydrochloride]
II = CN(CCN1CCOCC1)Cc1ccc2c(c1)Cc1c-2[nH]c(=O)c2ccccc12 [IIIb-19]
Input pair: I , II . Output: entry with lower pEC50. Your choice should be expressed through its label.
I
